test.method.notes: Half life in rat liver microsomes measured up to 30 mins
Format: ADME, Microsome
measurement.kind: half-life

Requested read-out: half-life. Entry: `O=C(O)C(=O)O.c1ccc(-c2ccc(OCCCCCN3CCCCCC3)cc2)cc1`
23.6 min

----------
measurement.kind: Ki (µM)
Number only, in µM; omit the unit.

Please state recorded Ki (tested on Voltage-gated inwardly rectifying potassium channel KCNH2 (Homo sapiens, UniProt Q12809)) of `CN1C[C@H]2CCN(c3ccc(-c4ccc(-n5ncccc5=O)cc4)cc3)[C@H]2C1`
Sequence (Q12809 whole entry): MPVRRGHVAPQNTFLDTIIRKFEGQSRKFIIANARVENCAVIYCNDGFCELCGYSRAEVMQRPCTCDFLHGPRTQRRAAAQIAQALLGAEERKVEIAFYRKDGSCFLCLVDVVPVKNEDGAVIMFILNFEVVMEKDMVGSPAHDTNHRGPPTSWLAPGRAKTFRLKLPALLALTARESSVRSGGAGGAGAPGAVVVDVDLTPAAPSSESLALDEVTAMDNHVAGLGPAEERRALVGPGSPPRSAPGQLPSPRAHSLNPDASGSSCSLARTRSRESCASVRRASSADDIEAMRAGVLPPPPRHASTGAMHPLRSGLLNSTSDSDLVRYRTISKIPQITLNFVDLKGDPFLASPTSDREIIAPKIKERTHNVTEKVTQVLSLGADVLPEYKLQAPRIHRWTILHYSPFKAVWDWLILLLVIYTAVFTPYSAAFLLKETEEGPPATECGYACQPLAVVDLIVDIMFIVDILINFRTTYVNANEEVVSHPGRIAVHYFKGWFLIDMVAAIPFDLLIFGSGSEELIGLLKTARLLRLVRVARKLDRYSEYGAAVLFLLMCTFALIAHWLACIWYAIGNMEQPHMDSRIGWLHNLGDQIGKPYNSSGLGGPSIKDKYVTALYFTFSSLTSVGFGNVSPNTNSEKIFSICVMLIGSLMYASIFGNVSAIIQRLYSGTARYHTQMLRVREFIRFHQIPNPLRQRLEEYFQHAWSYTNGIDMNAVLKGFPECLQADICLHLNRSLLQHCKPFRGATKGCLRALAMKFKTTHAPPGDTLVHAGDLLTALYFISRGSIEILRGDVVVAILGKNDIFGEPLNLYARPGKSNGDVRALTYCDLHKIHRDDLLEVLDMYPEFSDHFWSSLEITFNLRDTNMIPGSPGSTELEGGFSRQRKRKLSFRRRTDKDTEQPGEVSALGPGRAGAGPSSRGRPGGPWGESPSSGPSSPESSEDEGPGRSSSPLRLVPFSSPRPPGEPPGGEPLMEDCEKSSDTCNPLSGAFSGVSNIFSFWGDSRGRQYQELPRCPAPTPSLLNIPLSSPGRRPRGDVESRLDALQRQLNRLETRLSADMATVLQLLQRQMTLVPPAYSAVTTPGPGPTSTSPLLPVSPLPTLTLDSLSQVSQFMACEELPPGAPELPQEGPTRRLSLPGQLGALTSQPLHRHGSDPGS
8.83

----------
experimental.target: Histamine H3 receptor (Homo sapiens, UniProt Q9Y5N1)
Sequence (Q9Y5N1 whole entry): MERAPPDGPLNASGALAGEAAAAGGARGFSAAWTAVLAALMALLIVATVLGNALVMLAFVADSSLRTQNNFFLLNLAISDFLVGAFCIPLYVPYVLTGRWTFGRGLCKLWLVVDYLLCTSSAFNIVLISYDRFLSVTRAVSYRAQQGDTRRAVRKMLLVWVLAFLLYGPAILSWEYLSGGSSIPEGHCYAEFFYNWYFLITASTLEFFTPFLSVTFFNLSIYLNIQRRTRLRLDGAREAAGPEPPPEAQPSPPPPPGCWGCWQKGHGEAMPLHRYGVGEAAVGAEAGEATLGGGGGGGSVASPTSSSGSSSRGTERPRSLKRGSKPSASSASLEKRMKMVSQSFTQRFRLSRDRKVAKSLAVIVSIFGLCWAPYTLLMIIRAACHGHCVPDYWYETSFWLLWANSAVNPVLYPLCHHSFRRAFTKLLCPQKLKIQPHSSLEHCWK
test.method.notes: Displacement of [3H]-N-alpha-methylhistamine from human recombinant full length H3R expressed in HEK293 cell membranes incubated for 90 mins by liquid scintillation counting method
measurement.kind: Ki (nM)
Number only, in nM; omit the unit.

Please state recorded Ki (tested on Histamine H3 receptor (Homo sapiens, UniProt Q9Y5N1)) of `c1ccc(-c2cccc(OCCCCCCN3CCCCC3)c2)cc1`
122

Please state recorded Ki (tested on Histamine H3 receptor (Homo sapiens, UniProt Q9Y5N1)) of `c1ccc(-c2cccc(OCCCCCN3CCCCC3)c2)cc1`
76

Please state recorded Ki (tested on Histamine H3 receptor (Homo sapiens, UniProt Q9Y5N1)) of `CC1CCN(CCCCCCOc2cccc(-c3ccccc3)c2)CC1`
159

Please state recorded Ki (tested on Histamine H3 receptor (Homo sapiens, UniProt Q9Y5N1)) of `CC1CCN(CCCCCCOc2ccc(-c3ccccc3)cc2)CC1`
266

Please state recorded Ki (tested on Histamine H3 receptor (Homo sapiens, UniProt Q9Y5N1)) of `O=C(O)C(=O)O.c1ccc(-c2ccc(OCCCCCN3CCCCC3)cc2)cc1`
25

Please state recorded Ki (tested on Histamine H3 receptor (Homo sapiens, UniProt Q9Y5N1)) of `CC1CCN(CCCCCOc2ccc(-c3ccccc3)cc2)CC1`
89

Please state recorded Ki (tested on Histamine H3 receptor (Homo sapiens, UniProt Q9Y5N1)) of `O=C(O)C(=O)O.c1ccc(-c2ccc(OCCCCCN3CCCCCC3)cc2)cc1`
34

Please state recorded Ki (tested on Histamine H3 receptor (Homo sapiens, UniProt Q9Y5N1)) of `c1ccc(-c2cccc(OCCCCCN3CCCCCC3)c2)cc1`
115

Please state recorded Ki (tested on Histamine H3 receptor (Homo sapiens, UniProt Q9Y5N1)) of `c1ccc(-c2ccc(OCCCCCCN3CCCCCC3)cc2)cc1`
151

Please state recorded Ki (tested on Histamine H3 receptor (Homo sapiens, UniProt Q9Y5N1)) of `CC(C)(C)c1ccc(OCCCN2CCCCC2)cc1`
131

Please state recorded Ki (tested on Histamine H3 receptor (Homo sapiens, UniProt Q9Y5N1)) of `CC1CCN(CCCCCOc2cccc(-c3ccccc3)c2)CC1`
157

Please state recorded Ki (tested on Histamine H3 receptor (Homo sapiens, UniProt Q9Y5N1)) of `c1ccc(-c2ccc(OCCCCCCN3CCCCC3)cc2)cc1`
92

Please state recorded Ki (tested on Histamine H3 receptor (Homo sapiens, UniProt Q9Y5N1)) of `c1ccc(-c2cccc(OCCCCCCN3CCCCCC3)c2)cc1`
18

----------
experimental.target: Histamine H4 receptor (Homo sapiens)
Sequence (Q9H3N8 whole entry): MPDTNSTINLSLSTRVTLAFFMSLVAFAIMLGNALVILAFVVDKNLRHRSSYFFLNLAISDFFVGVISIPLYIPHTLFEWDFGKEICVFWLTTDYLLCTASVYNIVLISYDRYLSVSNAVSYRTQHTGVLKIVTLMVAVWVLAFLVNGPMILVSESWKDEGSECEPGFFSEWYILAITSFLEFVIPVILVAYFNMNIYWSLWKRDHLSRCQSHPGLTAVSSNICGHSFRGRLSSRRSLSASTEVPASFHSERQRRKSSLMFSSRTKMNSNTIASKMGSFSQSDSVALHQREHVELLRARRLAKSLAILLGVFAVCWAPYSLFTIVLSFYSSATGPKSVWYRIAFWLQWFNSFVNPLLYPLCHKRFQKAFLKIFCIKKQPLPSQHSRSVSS
test.method.notes: Antagonist activity at human H4R expressed in HEK293 cells incubated for 20 mins by [35S]GTPgammaS binding assay
Format: functional, cell-based
measurement.kind: Ki

Requested read-out: Ki. Entry: `CN1C[C@H]2CCN(c3ccc(-c4ccc(-n5ncccc5=O)cc4)cc3)[C@H]2C1`
> 10 µM
